System: Actinomadura sp. R39
Test: Inhibition of Actinomadura R39 D,D-peptidase assessed as inhibition of hydrolysis of thiolester substrate S2d measured as residual activity at 100 uM after 1 hr by Ellman's method
readout label: Activity (%)
Numbers only, in %.

Would you be so kind as to report Activity for each listed record?
1. C=CCCCCC(=O)N1C[C@H](NC(=O)CCC=C)C1=O
2. CCCCCCC(=O)N[C@H]1CN(C(=O)CC/C=C/CCC(=O)N2C[C@H](NC(=O)CCCCCC)C2=O)C1=O
3. C=CCCCC(=O)N[C@H]1CN(C(=O)CCCC=C)C1=O
4. C=CCCCC(=O)N1C[C@H](NC(=O)CCC=C)C1=O
5. C=CCCCCC(=O)N1C[C@H](NC(=O)CCCC=C)C1=O
6. C=CCCCCC(=O)N[C@H]1CN(C(=O)CCCC)C1=O
7. CCCCC(=O)N1C[C@H](NC(=O)CCCC/C=C/CCCCC(=O)N[C@H]2CN(C(=O)CCCC)C2=O)C1=O
8. C=CCCCCC(=O)N[C@H]1CN(C(=O)CCCC=C)C1=O

Result:
72
100
90
99
86
97
90
74

Would you be so kind as to report Activity for each listed record?
1. C=CCCCCC(=O)N[C@H]1CN(C(=O)CCC=C)C1=O
2. C=CCCC(=O)N1C[C@H](NC(=O)CCCCCC)C1=O

Result:
1: 91; 2: 92

* * *

Kindly state Activity for each of the entries shown.
Test system: Staphylococcus aureus
Assay: Inhibition of methicillin-resistant Staphylococcus aureus ATCC 43300 PBP5 assessed as residual activity at 1 mM after 4 hrs by fluorescence spectroscopy in presence of fluorescein-labeled ampicillin
One number for each entry, in %.

smiles: C=CCCCC(=O)N[C@H]1CN(C(=O)CCCC=C)C1=O
Activity (%): 100
--
smiles: C=CCCCCC(=O)N[C@H]1CN(C(=O)CCCCC=C)C1=O
Activity (%): 81
--
smiles: C=CCCCCC(=O)N[C@H]1CN(C(=O)CCC=C)C1=O
Activity (%): 89
--
smiles: C=CCCCCC(=O)N1C[C@H](NC(=O)CCCC=C)C1=O
Activity (%): 82
--
smiles: C=CCCC(=O)N1C[C@H](NC(=O)CCCCCC)C1=O
Activity (%): 100

Would you be so kind as to report Activity for each listed record?
1. C=CCCCCC(=O)N[C@H]1CN(C(=O)CCCC=C)C1=O
2. C=CCCCCC(=O)N[C@H]1CN(C(=O)CCCC)C1=O
3. C=CCCCC(=O)N[C@H]1CN(C(=O)CCC=C)C1=O
4. CCCCC(=O)N1C[C@H](NC(=O)CCCC/C=C/CCCCC(=O)N[C@H]2CN(C(=O)CCCC)C2=O)C1=O
5. C=CCCCCC(=O)N1C[C@H](NC(=O)CCC=C)C1=O
6. CCCCC(=O)N1C[C@H](NC(=O)CCCCCCCCCCC(=O)N[C@H]2CN(C(=O)CCCC)C2=O)C1=O
7. C=CCCCC(=O)N1C[C@H](NC(=O)CCC=C)C1=O
8. C=CCCC(=O)N[C@H]1CN(C(=O)CCC=C)C1=O

Result:
1: 85; 2: 100; 3: 93; 4: 89; 5: 77; 6: 90; 7: 100; 8: 79

Would you be so kind as to report Activity for each listed record?
1. CCCCCCC(=O)N[C@H]1CN(C(=O)CC/C=C/CCC(=O)N2C[C@H](NC(=O)CCCCCC)C2=O)C1=O
2. CCCCCCC(=O)N[C@H]1CN(C(=O)CCCCCCC(=O)N2C[C@H](NC(=O)CCCCCC)C2=O)C1=O

Result:
[100, 99]
